Examples of compounds with documented T/C follow.
System: L1210 leukemia ip in BDF1 mice, survival T/C
assay-method-text: NCI In Vivo Anticancer Drug Screen. Data for tumor model L1210 Leukemia (intraperitoneal) in B6D2F1 (BDF1) mice
assay-setup: endpoint: mean survival time; dose: 50.0 mg/kg/injection; schedule: Q04DX002 (ip); vehicle: saline with Tween-80; higher = longer survival
Inconclusive results and toxic doses are left out.

Solved cases below.
[
  {
    "compound": "c1ccc(C2CC2NC2=NCCO2)cc1 (centres undefined)",
    "T/C": "96 % of control"
  },
  {
    "compound": "Cc1nc(N)[nH]c(=O)c1NC(=O)c1ccc(N)cc1",
    "T/C": "99 % of control"
  },
  {
    "compound": "O=C1CCC2C1CC1CC3C(=O)CCC3C12 (centres undefined)",
    "T/C": "113 % of control"
  }
]

Okay, next one:
Input: # input compound: "O=C(CCN1CCCC1)c1ccc2ccccc2c1" ; wanted: its T/C
Output: 97 % of control

###

System: L1210 leukemia ip in BDF1 mice, survival T/C
assay-method-text: NCI In Vivo Anticancer Drug Screen. Data for tumor model L1210 Leukemia (intraperitoneal) in B6D2F1 (BDF1) mice
assay-setup: endpoint: mean survival time; dose: 12.5 mg/kg/injection; schedule: Q04DX002 (ip); vehicle: Klucel (hydroxypropylcellulose) (HPC); higher = longer survival
Inconclusive results and toxic doses are left out.
Examples of molecules with documented T/C follow.

Solved cases below.
[
  {
    "molecule": "CC(=O)OC1CCC2(C)C(=CCC3C2CCC2(C)C3CC3C2C(c2ccccc2)=NN3c2ccccc2)C1 (stereo not given)",
    "T/C": "104 % of control"
  },
  {
    "molecule": "O=c1[nH]cnc2ncn(Cc3ccccc3)c12",
    "T/C": "115 % of control"
  },
  {
    "molecule": "Cc1c2c(nn1-c1ccccn1)C(=O)C=C(Nc1ccccc1)C2=O",
    "T/C": "92 % of control"
  }
]

Input: Checklist item: T/C tested on L1210 leukemia ip in BDF1 mice, survival T/C, entry "COc1ccc(OC)c(NC(=S)N/N=C(/C)c2cc(Cl)c(C)cc2O)c1" , value?
Output: 112 % of control

Input: Please give the result for "Cc1ccc(C(=O)C=Nc2ccccc2[N+](=O)[O-])cc1" too.
Output: 105 % of control

###

Test system: L1210 leukemia ip in BDF1 mice, survival T/C
assay-method-text: NCI In Vivo Anticancer Drug Screen. Data for tumor model L1210 Leukemia (intraperitoneal) in B6D2F1 (BDF1) mice
assay-setup: endpoint: mean survival time; dose: 400.0 mg/kg/injection; schedule: Q04DX002 (ip); vehicle: saline with Tween-80; higher = longer survival
Toxic doses and inconclusive results are not listed.
readout-label: T/C

[
  {
    "compound": "O=C(O)C(Br)C(Br)C(=O)Nc1cccc(Cl)c1 (configuration not stated)",
    "T/C": "88 % of control"
  },
  {
    "compound": "CC(=O)OCOC(COC(C)=O)C1OCOC(COC(C)=O)C1OCOC(C)=O (configuration not stated)",
    "T/C": "100 % of control"
  },
  {
    "compound": "O=C(NO)C(=O)NO",
    "T/C": "110 % of control"
  },
  {
    "compound": "CCC[CH2][Sn]1([CH2]CCC)[CH2]CC(=O)[O]1",
    "T/C": "92 % of control"
  },
  {
    "compound": "COC(=O)c1ccccc1NC1=NCCO1",
    "T/C": "88 % of control"
  },
  {
    "compound": "Clc1ccccc1C=NC1CCCCC1",
    "T/C": "93 % of control"
  }
]

Okay, next one:
Input: # input compound: "O=C(Cc1ccccc1)NCCCl" ; wanted: its T/C
Output: 105 % of control

###

Examples of compounds with documented T/C follow.
Test system: L1210 leukemia ip in BDF1 mice, survival T/C
assay-method-text: NCI In Vivo Anticancer Drug Screen. Data for tumor model L1210 Leukemia (intraperitoneal) in B6D2F1 (BDF1) mice
assay-setup: endpoint: mean survival time; dose: 75.0 mg/kg/injection; schedule: Q01DX001 (ip); vehicle: carboxymethylcellulose (CMC); higher = longer survival
Toxic doses and inconclusive results are not listed.

Input: Checklist item: T/C tested on L1210 leukemia ip in BDF1 mice, survival T/C, entry CN1CCC(CO)(c2ccccc2)C1 (stereo not drawn) , value?
Output: 96 % of control

Input: Please give the result for "CN(N)C(=O)Nc1ccccc1[N+](=O)[O-]" too.
Output: 96 % of control

Input: Please give the result for CC1=CC(C)C(=O)N(C)C(C)=C1 (stereo not drawn) too.
Output: 97 % of control

Input: Please give the result for "O=C(NC(=S)Nc1ccccc1)c1ccc([N+](=O)[O-])cc1" too.
Output: 98 % of control

Input: Please give the result for "COc1c2ccoc2cc2oc(C)cc(=O)c12" too.
Output: 100 % of control

###

Tested on: L1210 leukemia ip in BDF1 mice, survival T/C
assay-method-text: NCI In Vivo Anticancer Drug Screen. Data for tumor model L1210 Leukemia (intraperitoneal) in B6D2F1 (BDF1) mice
assay-setup: endpoint: mean survival time; dose: 100.0 mg/kg/injection; schedule: Q01DX009 (ip); vehicle: saline
Inconclusive results and toxic doses are left out. Cut-off read from the data, not from the text of the source: active = T/C of 150% or more; inactive = T/C below 125%.
Write down the outcome that applies. Available outcomes: yes (active), no (inactive)

[
  {
    "compound": "CP1(=O)CC2OC23CCCCC31 (centres undefined)",
    "cat": "no"
  },
  {
    "compound": "CCOC(=O)CCN1CCCCCC1",
    "cat": "no"
  },
  {
    "compound": "CC(N)(CO)CO",
    "cat": "no"
  },
  {
    "compound": "CC(C)N(CCCOC(=O)c1ccc(N)cc1)C(C)C",
    "cat": "no"
  },
  {
    "compound": "NC(Cn1ccc(=O)c(O)c1)C(=O)O (centres undefined)",
    "cat": "no"
  },
  {
    "compound": "CC1CN=C(c2ccc(O)cc2)S1 (centres undefined)",
    "cat": "no"
  }
]

Input: Could you check what this test reported for O=CC(O)C(O)C(O)C(O)CO (centres undefined) ?
Output: no

###

Tested on: L1210 leukemia ip in BDF1 mice, survival T/C
assay-method-text: NCI In Vivo Anticancer Drug Screen. Data for tumor model L1210 Leukemia (intraperitoneal) in B6D2F1 (BDF1) mice
assay-setup: endpoint: mean survival time; dose: 100.0 mg/kg/injection; schedule: Q01DX001 (ip); vehicle: saline with Tween-80; higher = longer survival
Inconclusive results and toxic doses are left out.
Examples of compounds with documented T/C follow.

Solved cases below.
[
  {
    "compound": "CCCCCc1c2c(c(CCCCC)c3c1-c1cccc4cccc-3c14)-c1ccc(C)cc1C2",
    "test-value": "92 % of control"
  },
  {
    "compound": "Cc1ccc(S(=O)(=O)N2CCOCCOCCOc3ccc4ccccc4c3-c3c(ccc4ccccc34)OCCOCC2)cc1",
    "test-value": "95 % of control"
  },
  {
    "compound": "NC1CC2CCC1C2 (stereo unspecified)",
    "test-value": "98 % of control"
  }
]

Input: # input compound: "O=[N+]([O-])c1ccc(Cl)c(OCCCOc2ccc(S(=O)(=O)F)cc2)c1" ; wanted: its T/C
Output: 96 % of control

Input: Please give the result for "O=C1C2(c3ccccc3)CCC1(c1ccccc1)C(c1ccccc1)=C2c1ccccc1" too.
Output: 93 % of control

Input: Please give the result for "CN(C(=O)Oc1ccccc1)c1ccc(S(=O)(=O)F)cc1" too.
Output: 104 % of control

Input: Please give the result for "c1ccc(-c2cnnn2-c2ccccc2)cc1" too.
Output: 105 % of control

Input: Please give the result for "CC1(N(O)C(=O)NC2CCCCC2)CCCCC1" too.
Output: 101 % of control

Input: Please give the result for "COC(=O)c1ccc(C(C)=O)cc1" too.
Output: 103 % of control

Input: Please give the result for "Oc1ccc(C2(CCl)OCCO2)cc1" too.
Output: 107 % of control

Input: Please give the result for "Nc1nc(N)c(-c2ccc(Cl)cc2)c(CNc2ccc(/C=C/C3(CCl)OCCO3)cc2)n1" too.
Output: 92 % of control

###

Examples of compounds with documented T/C follow.
Tested on: L1210 leukemia ip in BDF1 mice, survival T/C
assay-method-text: NCI In Vivo Anticancer Drug Screen. Data for tumor model L1210 Leukemia (intraperitoneal) in B6D2F1 (BDF1) mice
assay-setup: endpoint: mean survival time; dose: 50.0 mg/kg/injection; schedule: Q04DX003 (ip); vehicle: saline with Tween-80; higher = longer survival
Inconclusive results and toxic doses are left out.

[
  {
    "compound": "CNC(=S)NC1CC(OC2CC(O)(C(C)=O)Cc3c(O)c4c(c(O)c32)C(=O)c2c(OC)cccc2C4=O)OC(C)C1O (stereo unspecified)",
    "T/C": "121 % of control"
  }
]

Input: # input compound: "Cc1ccc(C)c(CCN)c1" ; wanted: its T/C
Output: 100 % of control

Input: Please give the result for "COc1ccc(NC(=O)CCC(=O)O)cc1" too.
Output: 96 % of control

Input: Please give the result for "COc1ccc([N+](=O)[O-])cc1NS(=O)(=O)c1ccc(C)cc1" too.
Output: 95 % of control

Input: Please give the result for "CCCCCCCCCCCCOC(=O)C[n+]1cccc(C(=O)NC)c1" too.
Output: 95 % of control

Input: Please give the result for CC(=O)c1ccccc1OCC(O)CN1CCN(c2ccccc2)CC1 (stereo unspecified) too.
Output: 103 % of control
